The reported measurements were obtained from paper PMC11503492.

system: PCSK9[1:33]-GFP translation; assay: Wheat germ lysate (WG) IVTT microplate activity assay, PCSK9[1:33]-GFP template; assay type: biochemical; conditions: WG IVTT
measured parameter: inhibition of PCSK9[1:33]-GFP translation (in words)

structure | result
Cc1cccc2ccnc(N(C(=O)[C@H]3CCCN(C(=O)c4ccc(-c5cnco5)cc4)C3)[C@@H]3CCCNC3)c12 | modestly inhibited
Cc1cccc2ccnc(N(C(=O)[C@H]3CCCN(C(=O)c4ccc(N5CCCC5)nc4)C3)[C@@H]3CCCNC3)c12 | modestly inhibited

* * *

Tested on: PCSK9-FS[1:33]-GFP translation
Assay: WG IVTT microplate activity assay, PCSK9-FS[1:33]-GFP frameshift counter template
Assay type: biochemical, wheat germ
Settings: PCSK9-FS[1:33]-GFP template, triplicate, undetectable IC50 marked >300
Experimental: A commercially available wheat germ lysate (WG) IVTT system was employed to assay translation inhibition. Translation activity was detected via a GFP reporter, and the assay was miniaturized to picoliter-scale microfluidic droplets (Figure 1A,B). […] The WG IVTT assay was miniaturized using a previously described microfluidic circuit modified for longer incubation times (Figure S1)[27] using PF846 as a positive control compound, and assay statistical quality was calculated (Z′=0.7) (Figure 1E). […]
Could you please report measured IC50 for the items listed next?
Numbers only, in µM.

Record excerpt, results attached:
structure | IC50 [µM]
Cc1cccc2ccnc(N(C(=O)C3CCN(C(=O)c4cccc5c(C#N)c[nH]c45)CC3)[C@@H]3CCCNC3)c12 | 24
Cc1c(C(=O)N2CCC(C(=O)N(c3nccc4cccc(C)c34)[C@@H]3CCCNC3)CC2)[nH]c2c1C(=O)CCC2 | 31
Cc1cccc2ccnc(N(C(=O)C3CCN(C(=O)C#CC4(O)CCOCC4)CC3)[C@@H]3CCCNC3)c12 | 27

Now look at this entry.
For Cc1cccc2ccnc(N(C(=O)C3CCN(C(=O)c4ccc5nc(-c6ccncc6)[nH]c5c4)CC3)[C@@H]3CCCNC3)c12 , what is its reported IC50?
7.7
